Biological target: HSA (Homo sapiens, UniProt P02768)
Construct: purchased Sigma-Aldrich Co
Sequence (P02768 25-609): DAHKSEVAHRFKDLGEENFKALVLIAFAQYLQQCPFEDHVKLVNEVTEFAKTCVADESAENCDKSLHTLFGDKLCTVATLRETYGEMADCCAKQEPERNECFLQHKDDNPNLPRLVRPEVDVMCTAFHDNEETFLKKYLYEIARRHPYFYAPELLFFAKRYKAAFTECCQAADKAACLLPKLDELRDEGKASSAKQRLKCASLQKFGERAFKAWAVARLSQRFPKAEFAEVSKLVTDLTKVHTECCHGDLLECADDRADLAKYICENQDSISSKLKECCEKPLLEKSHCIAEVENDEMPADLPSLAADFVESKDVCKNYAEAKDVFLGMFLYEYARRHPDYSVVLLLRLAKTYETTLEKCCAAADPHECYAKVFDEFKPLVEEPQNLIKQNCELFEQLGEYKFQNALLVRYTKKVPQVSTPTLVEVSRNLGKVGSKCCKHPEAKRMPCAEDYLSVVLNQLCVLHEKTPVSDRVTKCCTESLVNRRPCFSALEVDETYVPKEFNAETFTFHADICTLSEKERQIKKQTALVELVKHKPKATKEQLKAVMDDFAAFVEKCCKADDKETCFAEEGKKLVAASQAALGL
Assay: Competitive HSA-fluorescence studies with warfarin and ibuprofen
Type: binding
Conditions: ibuprofen
assayEndpoint: HSA-binding constant K, Marker: Ibuprofen

{"molecule": "O=Cc1cc(Cl)cc(Cl)c1[O-].O=Cc1cc(Cl)cc(Cl)c1[O-].[Pd+2] [Complex 3, [Pd(3,5-diCl-salo)2]]", "result": "3.78 (±0.14) × 10^5 M^−1"}

Let me check: O=Cc1cc(Br)cc(Br)c1[O][Pd][O]c1c(Br)cc(Br)cc1C=O [Complex 2, [Pd(3,5-diBr-salo)2]] , system HSA (Homo sapiens, UniProt P02768), measured HSA-binding constant K, Marker: Ibuprofen is 3.23 (±0.13) × 10^5 M^−1

Let me check: COc1ccc(C=O)c([O-])c1.COc1ccc(C=O)c([O-])c1.[Pd+2] [Complex 5, [Pd(4-OMe-salo)2]] , system HSA (Homo sapiens, UniProt P02768), measured HSA-binding constant K, Marker: Ibuprofen is 1.45 (±0.17) × 10^4 M^−1

Let me check: O=Cc1cc(F)ccc1[O-].O=Cc1cc(F)ccc1[O-].[Pd+2] [Complex 4, [Pd(5-F-salo)2]] , system HSA (Homo sapiens, UniProt P02768), measured HSA-binding constant K, Marker: Ibuprofen is 1.10 (±0.08) × 10^5 M^−1

Let me check: CCN(CC)c1ccc(C=O)c([O][Pd][O]c2cc(N(CC)CC)ccc2C=O)c1 [Complex 1, [Pd(4-Et2N-salo)2]] , system HSA (Homo sapiens, UniProt P02768), measured HSA-binding constant K, Marker: Ibuprofen is 1.86 (±0.12) × 10^5 M^−1

====

Each record here notes measured BSA-binding constant K, Marker: Warfarin.
Target: BSA (Bos taurus)
Construct: purchased Sigma-Aldrich Co
Sequence (P02769 25-607): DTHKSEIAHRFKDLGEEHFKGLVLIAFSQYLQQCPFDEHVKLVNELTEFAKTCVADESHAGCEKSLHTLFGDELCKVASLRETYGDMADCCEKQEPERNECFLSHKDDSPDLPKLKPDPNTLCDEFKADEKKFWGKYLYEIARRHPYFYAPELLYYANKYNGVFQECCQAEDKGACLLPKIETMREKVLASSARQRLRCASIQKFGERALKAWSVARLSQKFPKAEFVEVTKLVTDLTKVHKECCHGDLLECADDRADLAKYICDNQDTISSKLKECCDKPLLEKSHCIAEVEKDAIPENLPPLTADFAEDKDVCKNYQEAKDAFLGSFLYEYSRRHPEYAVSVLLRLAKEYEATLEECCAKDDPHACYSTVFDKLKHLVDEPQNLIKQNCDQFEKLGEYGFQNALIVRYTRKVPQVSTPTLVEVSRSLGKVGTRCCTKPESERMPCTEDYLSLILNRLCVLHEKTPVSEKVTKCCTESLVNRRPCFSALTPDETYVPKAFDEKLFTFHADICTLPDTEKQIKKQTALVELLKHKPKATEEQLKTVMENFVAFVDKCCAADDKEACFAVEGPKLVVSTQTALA
Assay: Competitive BSA-fluorescence studies with warfarin and ibuprofen
Assay type: binding, bovine
Conditions: warfarin 3 μM

Worked cases, answers included:
{"compound": "O=Cc1cc(Br)cc(Br)c1[O][Pd][O]c1c(Br)cc(Br)cc1C=O [Complex 2, [Pd(3,5-diBr-salo)2]]", "result": "9.64 (±0.70) × 10^4 M^−1"}
{"compound": "COc1ccc(C=O)c([O-])c1.COc1ccc(C=O)c([O-])c1.[Pd+2] [Complex 5, [Pd(4-OMe-salo)2]]", "result": "1.46 (±0.14) × 10^5 M^−1"}
{"compound": "O=Cc1cc(F)ccc1[O-].O=Cc1cc(F)ccc1[O-].[Pd+2] [Complex 4, [Pd(5-F-salo)2]]", "result": "6.05 (±0.27) × 10^4 M^−1"}
{"compound": "O=Cc1cc(Cl)cc(Cl)c1[O-].O=Cc1cc(Cl)cc(Cl)c1[O-].[Pd+2] [Complex 3, [Pd(3,5-diCl-salo)2]]", "result": "3.26 (±0.34) × 10^5 M^−1"}

// switching to the query compound
Documented BSA-binding constant K, Marker: Warfarin of CCN(CC)c1ccc(C=O)c([O][Pd][O]c2cc(N(CC)CC)ccc2C=O)c1 [Complex 1, [Pd(4-Et2N-salo)2]] : 9.34 (±0.60) × 10^4 M^−1

====

Each record here notes measured Kd.
Molecular target: BSA (Bos taurus)
Construct: purchased Sigma-Aldrich Co
Experiment: Competitive BSA-fluorescence studies with warfarin and ibuprofen
Type: binding, bovine
Provide the measurement as a number trailed by its unit.

{"compound": "O=Cc1cc(F)ccc1O [5-F-saloH, 5-fluoro-salicylaldehyde, reference compound]", "assayEndpoint": "Kd", "result": "23200 nM"}
{"compound": "CCN(CC)c1ccc(C=O)c(O)c1 [4-Et2N-saloH, 4-diethylamino-salicylaldehyde, reference compound]", "assayEndpoint": "Kd", "result": "2400 nM"}

// switching to the query compound
Documented Kd of COc1ccc(C=O)c(O)c1 [4-OMe-saloH, 4-methoxy-salicylaldehyde, reference compound] : 2430 nM

====

Biological target: HSA (Homo sapiens, UniProt P02768)
Construct: purchased Sigma-Aldrich Co
Test: Competitive HSA-fluorescence studies with warfarin and ibuprofen
Assay type: binding
assayEndpoint: pKd
# pKd: negative log10 of molar concentration; output just the value

{"compound": "COc1ccc(C=O)c(O)c1 [4-OMe-saloH, 4-methoxy-salicylaldehyde, reference compound]", "pKd": 4.99}
{"compound": "O=Cc1cc(F)ccc1O [5-F-saloH, 5-fluoro-salicylaldehyde, reference compound]", "pKd": 4.67}

// switching to the query compound
Documented pKd of CCN(CC)c1ccc(C=O)c(O)c1 [4-Et2N-saloH, 4-diethylamino-salicylaldehyde, reference compound] : 5.61

====

System: Xanthomonas campestris ATCC 1395
Test: MIC determination
Type: cell-based
Settings: 24 h
assayEndpoint: MIC X. campestris (µg/mL)
Field: numeric (µg/mL). Do not append units.

{"compound": "O=Cc1cc(Br)cc(Br)c1[O][Pd][O]c1c(Br)cc(Br)cc1C=O [Complex 2, [Pd(3,5-diBr-salo)2]]", "assayEndpoint": "MIC X. campestris", "readoutNumber": 25}

Documented MIC X. campestris of O=Cc1cc(F)ccc1[O-].O=Cc1cc(F)ccc1[O-].[Pd+2] [Complex 4, [Pd(5-F-salo)2]] : 100

Documented MIC X. campestris of O=Cc1cc(Cl)cc(Cl)c1[O-].O=Cc1cc(Cl)cc(Cl)c1[O-].[Pd+2] [Complex 3, [Pd(3,5-diCl-salo)2]] : 25

Documented MIC X. campestris of CCN(CC)c1ccc(C=O)c([O][Pd][O]c2cc(N(CC)CC)ccc2C=O)c1 [Complex 1, [Pd(4-Et2N-salo)2]] : 200

Documented MIC X. campestris of COc1ccc(C=O)c([O-])c1.COc1ccc(C=O)c([O-])c1.[Pd+2] [Complex 5, [Pd(4-OMe-salo)2]] : 100

====

Test system: Bacillus subtilis ATCC 6633
Assay: MIC determination
Type: cell-based
Details: 24 h
Each record here notes measured MIC B. subtilis.
Field: numeric (µg/mL). Do not append units.

Documented MIC B. subtilis of O=Cc1cc(Br)cc(Br)c1[O][Pd][O]c1c(Br)cc(Br)cc1C=O [Complex 2, [Pd(3,5-diBr-salo)2]] : 25

Documented MIC B. subtilis of COc1ccc(C=O)c([O-])c1.COc1ccc(C=O)c([O-])c1.[Pd+2] [Complex 5, [Pd(4-OMe-salo)2]] : 100

Documented MIC B. subtilis of O=Cc1cc(F)ccc1[O-].O=Cc1cc(F)ccc1[O-].[Pd+2] [Complex 4, [Pd(5-F-salo)2]] : 100

Documented MIC B. subtilis of CCN(CC)c1ccc(C=O)c([O][Pd][O]c2cc(N(CC)CC)ccc2C=O)c1 [Complex 1, [Pd(4-Et2N-salo)2]] : 100

Documented MIC B. subtilis of O=Cc1cc(Cl)cc(Cl)c1[O-].O=Cc1cc(Cl)cc(Cl)c1[O-].[Pd+2] [Complex 3, [Pd(3,5-diCl-salo)2]] : 50
